system: Brain; assay: Dose normalized AUC (0 to 7 hrs) in Han-Wistar SOA rat model brain at 2 mg/kg administered via oral gavage by UPLC/MS/MS analysis; assay type: ADME, organism-based; settings: in vivo
Reported values of AUC/dose for individual entries
readout-type: AUC/dose (ng·h/g/mg/kg)

>>> result_value("CC1=CCC[C@H]1NC(=O)Nc1ccc(Cl)c(S(=O)(=O)C(C)(C)CF)c1O")
97
>>> result_value("CC1=CCC[C@H]1NC(=O)Nc1ccc(Cl)c(S(=O)(=O)C(C)(F)F)c1O")
243
>>> result_value("CC1=CCC[C@H]1NC(=O)Nc1ccc(Cl)c(S(=O)(=O)[C@H]2C[C@H](N3CCCC3)C2)c1O")
296
>>> result_value("CC1=CCC[C@H]1NC(=O)Nc1ccc(Cl)c(S(=O)(=O)[C@@]2(C)CCOC2)c1O")
87.7
>>> result_value("CC1=CCC[C@H]1NC(=O)Nc1ccc(Cl)c(S(=O)(=O)C(C)(C)C(F)(F)F)c1O")
107
>>> result_value("CC1=CCC[C@H]1NC(=O)Nc1ccc(C#N)c(S(=O)(=O)C(C)(C)C)c1O")
73

###

assay: Fraction unbound in Han-Wistar SOA rat model brain at 2 mg/kg administered via oral gavage by UPLC/MS/MS analysis; assay type: ADME, organism-based
Give class 1 when the value for fraction unbound is at least 0.1. Give class 0 when it is less.

>>> answer_label("CC1=CCC[C@H]1NC(=O)Nc1ccc(Cl)c(S(=O)(=O)[C@]2(C)CCOC2)c1O")
"class 1"
>>> answer_label("CC1=CCC[C@H]1NC(=O)Nc1ccc(Cl)c(S(=O)(=O)C(C)(F)F)c1O")
"class 0"
>>> answer_label("CC1=CCC[C@H]1NC(=O)Nc1ccc(Cl)c(S(=O)(=O)[C@H]2C[C@H](N(C)C)C2)c1O")
"class 1"
>>> answer_label("CC1=CCC[C@H]1NC(=O)Nc1ccc(Cl)c(S(=O)(=O)C(C)(C)CF)c1O")
"class 0"
>>> answer_label("CC1=CCC[C@H]1NC(=O)Nc1ccc(Cl)c(S(=O)(=O)C(C)(C)C(F)(F)F)c1O")
"class 0"
>>> answer_label("CC1=CCC[C@H]1NC(=O)Nc1ccc(Cl)c(S(=O)(=O)[C@@]2(C)CCOC2)c1O")
"class 1"
>>> answer_label("CC1=CCC[C@H]1NC(=O)Nc1ccc(Cl)c(S(=O)(=O)[C@H]2C[C@H](N3CCCC3)C2)c1O")
"class 1"

###

experiment: Efflux ratio of passive permeability in MDCK2-MDR1 cells transduced with BacMam2-BCRP at 3 uM after 90 mins by Transwell assay; assay type: ADME, cell-based, Canis lupus familiaris, MDCK-MDR1; conditions: dog
readout-type: efflux ratio at 1.5 h, 3 µM

>>> result_value("CC1=CCC[C@H]1NC(=O)Nc1ccc(Cl)c(S(=O)(=O)C(F)(F)CN(C)C)c1O")
12.6
>>> result_value("COCC(C)S(=O)(=O)c1c(Cl)ccc(NC(=O)N[C@@H]2CCC=C2C)c1O (stereo not given in full)")
3.2
>>> result_value("CC1=CCC[C@H]1NC(=O)Nc1ccc(Cl)c(S(=O)(=O)C(C)(C)C2COC2)c1O")
3.2
>>> result_value("CC1=CCC[C@H]1NC(=O)Nc1ccc(Cl)c(S(=O)(=O)C2CCCOC2)c1O (stereo not given in full)")
9.6
>>> result_value("CC1=CCC[C@H]1NC(=O)Nc1ccc(Cl)c(S(=O)(=O)C2(C)CCOCC2)c1O")
3.4

Taken from ChEMBL document CHEMBL4033786.
